Assay: total protein half-life in vivo (active degradation + dilution); higher = more stable protein
Details: wild type E. coli NCM3722; growth: C-lim chemostat; doubling time 12 h
Let's look at some sequences and their measured total protein half-life in vivo.

RECORD SEQUENCE: MILHPSLASANPLHYGRELTALDNLDFGSLHLDIEDSSFINNITFGMKTVQAVARQTPHPLSFHFMLARPQRWFNALAEIRPAWIFVHAETLDYPSETLTEIRHTGARAGLVFNPATPIDAWRYLASELDGVMVMTSEPDGQGQRFIPSMCEKIQKVRTAFPQTECWADGGITLAAAQQLAAAGAQHMVIGRALFSSSDYRATLAQFATL
READING UNIT: h
total protein half-life in vivo: 0.974
--
RECORD SEQUENCE: MSHVELQPGFDFQQAGKEVLAIERECLAELDQYINQNFTLACEKMFWCKGKVVVMGMGKSGHIGRKMAATFASTGTPSFFVHPGEAAHGDLGMVTPQDVVIAISNSGESSEITALIPVLKRLHVPLICITGRPESSMARAADVHLCVKVAKEACPLGLAPTSSTTATLVMGDALAVALLKARGFTAEDFALSHPGGALGRKLLLRVNDIMHTGDEIPHVKKTASLRDALLEVTRKNLGMTVICDDNMMIEGIFTDGDLRRVFDMGVDVRQLSIADVMTPGGIRVRPGILAVEALNLMQSRHITSVMVADGDHLLGVLHMHDLLRAGVV
READING UNIT: h
total protein half-life in vivo: 10.3
--
RECORD SEQUENCE: MKYQLTALEARVIGCLLEKQVTTPEQYPLSVNGVVTACNQKTNREPVMNLSESEVQEQLDNLVKRHYLRTVSGFGNRVTKYEQRFCNSEFGDLKLSAAEVALITTLLLRGAQTPGELRSRAARMYEFSDMAEVESTLEQLANREDGPFVVRLAREPGKRENRYMHLFSGEVEDQPAVTDMSNAVDGDLQARVEALEIEVAELKQRLDSLLAHLGD
READING UNIT: h
total protein half-life in vivo: 9.65

---

Let's look at some sequences and their measured total protein half-life in vivo.
Assay: total protein half-life in vivo (active degradation + dilution); higher = more stable protein
Settings: E. coli NCM3722 delta-hslV; growth: N-lim chemostat; doubling time 6 h

RECORD SEQUENCE: MLELLFLLLPVAAAYGWYMGRRSAQQNKQDEANRLSRDYVAGVNFLLSNQQDKAVDLFLDMLKEDTGTVEAHLTLGNLFRSRGEVDRAIRIHQTLMESASLTYEQRLLAIQQLGRDYMAAGLYDRAEDMFNQLTDETDFRIGALQQLLQIYQATSEWQKAIDVAERLVKLGKDKQRVEIAHFYCELALQHMASDDLDRAMTLLKKGAAADKNSARVSIMMGRVFMAKGEYAKAVESLQRVISQDRELVSETLEMLQTCYQQLGKTAEWAEFLQRAVEENTGADAELMLADIIEARDGSEAAQVYITRQLQRHPTMRVFHKLMDYHLNEAEEGRAKESLMVLRDMVGEKVRSKPRYRCQKCGFTAYTLYWHCPSCRAWSTIKPIRGLDGL [P0AB58]
READING UNIT: h
total protein half-life in vivo: 6.34
--
RECORD SEQUENCE: MTTLTARPEAITFDPQQSALIVVDMQNAYATPGGYLDLAGFDVSTTRPVIANIQTAVTAARAAGMLIIWFQNGWDEQYVEAGGPGSPNFHKSNALKTMRKQPQLQGKLLAKGSWDYQLVDELVPQPGDIVLPKPRYSGFFNTPLDSILRSRGIRHLVFTGIATNVCVESTLRDGFFLEYFGVVLEDATHQAGPKFAQKAALFNIETFFGWVSDVETFCDALSPTSFAHIA
READING UNIT: h
total protein half-life in vivo: 0.334
--
RECORD SEQUENCE: MIALIQRVTRASVTVEGEVTGEIGAGLLVLLGVEKDDDEQKANRLCERVLGYRIFSDAEGKMNLNVQQAGGSVLVVSQFTLAADTERGMRPSFSKGASPDRAEALYDYFVERCRQQEMNTQTGRFAADMQVSLVNDGPVTFWLQV [P0A6M4]
READING UNIT: h
total protein half-life in vivo: 3.86
--
RECORD SEQUENCE: MTTYDRNRNAITTGSRVMVSGTGHTGKILSIDTEGLTAEQIRRGKTVVVEGCEEKLAPLDLIRLGMN
READING UNIT: h
total protein half-life in vivo: 4.25
--
RECORD SEQUENCE: MIVLVTGATAGFGECITRRFIQQGHKVIATGRRQERLQELKDELGDNLYIAQLDVRNRAAIEEMLASLPAEWCNIDILVNNAGLALGMEPAHKASVEDWETMIDTNNKGLVYMTRAVLPGMVERNHGHIINIGSTAGSWPYAGGNVYGATKAFVRQFSLNLRTDLHGTAVRVTDIEPGLVGGTEFSNVRFKGDDGKAEKTYQNTVALTPEDVSEAVWWVSTLPAHVNINTLEMMPVTQSYAGLNVHRQ
READING UNIT: h
total protein half-life in vivo: 6.26
--
RECORD SEQUENCE: MKRTKSIRHASFRKNWSARHLTPVALAVATVFMLAGCEKSDETVSLYQNADDCSAANPGKSAECTTAYNNALKEAERTAPKYATREDCVAEFGEGQCQQAPAQAGMAPENQAQAQQSSGSFWMPLMAGYMMGRLMGGGAGFAQQPLFSSKNPASPAYGKYTDATGKNYGAAQPGRTMTVPKTAMAPKPATTTTVTRGGFGESVAKQSTMQRSATGTSSRSMGG [P0ADT2]
READING UNIT: h
total protein half-life in vivo: 3.89
--
RECORD SEQUENCE: MKKKRPVLQDVADRVGVTKMTVSRFLRNPEQVSVALRGKIAAALDELGYIPNRAPDILSNATSRAIGVLLPSLTNQVFAEVLRGIESVTDAHGYQTMLAHYGYKPEMEQERLESMLSWNIDGLILTERTHTPRTLKMIEVAGIPVVELMDSKSPCLDIAVGFDNFEAARQMTTAIIARGHRHIAYLGARLDERTIIKQKGYEQAMLDAGLVPYSVMVEQSSSYSSGIELIRQARREYPQLDGVFCTNDDLAVGAAFECQRLGLKVPDDMAIAGFHGHDIGQVMEPRLASVLTPRERMGSIGAERLLARIRGESVTPKMLDLGFTLSPGGSI [P0ACP5]
READING UNIT: h
total protein half-life in vivo: 5.79
--
RECORD SEQUENCE: MAFKIWQIGLHLQQQEAVAVAIVRGAKECFLQRWWRLPLENDIIKDGRIVDAQQLAKTLLPWSRELPQRHHIMLAFPASRTLQRSFPRPSMSLGEREQTAWLSGTMARELDMDPDSLRFDYSEDSLSPAYNVTAAQSKELATLLTLAERLRVHVSAITPDASALQRFLPFLPSHQQCLAWRDNEQWLWATRYSWGRKLAVGMTSAKELAAALSVDPESVAICGEGGFDPWEAVSVRQPPLPPPGGDFAIALGLALGKAY
READING UNIT: h
total protein half-life in vivo: 2.84
--
RECORD SEQUENCE: MTKPYVRLDKNDAAVLLVDHQAGLLSLVRDIEPDKFKNNVLALGDLAKYFNLPTILTTSFETGPNGPLVPELKAQFPDTPYIARPGNINAWDNEDFVKAVKATGKKQLIIAGVVTEVCVAFPALSAIEEGFDVFVVTDASGTFNEITRHSAWDRLSQAGAQLMTWFGVACELHRDWRNDIEGLATLFSNHIPDYRNLMTSYDTLTKQK
READING UNIT: h
total protein half-life in vivo: 5.4
--
RECORD SEQUENCE: MYKTIIMPVDVFEMELSDKAVRHAEFLAQDDGVIHLLHVLPGSASLSLHRFAADVRRFEEHLQHEAQERLQTMVSHFTIDPSRIKQHVRFGSVRDEVNELAEELGADVVVIGSRNPSISTHLLGSNASSVIRHANLPVLVVR
READING UNIT: h
total protein half-life in vivo: 4.48
--
RECORD SEQUENCE: MSESLSWMQTGDTLALSGELDQDVLLPLWEMREEAVKGITCIDLSRVSRVDTGGLALLLHLIDLAKKQGNNVTLQGVNDKVYTLAKLYNLPADVLPR
READING UNIT: h
total protein half-life in vivo: 6.39
--
RECORD SEQUENCE: MRVLVVEDNALLRHHLKVQIQDAGHQVDDAEDAKEADYYLNEHIPDIAIVDLGLPDEDGLSLIRRWRSNDVSLPILVLTARESWQDKVEVLSAGADDYVTKPFHIEEVMARMQALMRRNSGLASQVISLPPFQVDLSRRELSINDEVIKLTAFEYTIMETLIRNNGKVVSKDSLMLQLYPDAELRESHTIDVLMGRLRKKIQAQYPQEVITTVRGQGYLFELR
READING UNIT: h
total protein half-life in vivo: 4.06
--
RECORD SEQUENCE: MWYQKTLTLSAKSRGFHLVTDEILNQLADMPRVNIGLLHLLLQHTSASLTLNENCDPTVRHDMERFFLRTVPDNGNYEHDYEGADDMPSHIKSSMLGTSLVLPVHKGRIQTGTWQGIWLGEHRIHGGSRRIIATLQGE [P0AF48]
READING UNIT: h
total protein half-life in vivo: 4.19
